Tested on: A549
Experiment: NCI tumour cell line growth inhibition, 48 h
Activity calls are given as the source filed them. No stated cut-off is given here; in the data, active = GI50 up to about 1.1 µM and inactive = higher.
Hi! Could you answer with just one of these? t = active, f = inactive

Query block: Tell me the assay call for Cc1cc(C)c2c(c1)CN1CN2Cc2cc(C)cc(C)c21 please.
Result block: f

Query block: # lookup: test call for CC(=O)/C=C/C1=C(C)CCCC1(C)CC(C)C (configuration not stated)
Result block: f

Query block: Tell me the assay call for COc1cc2c(cc1OCCCC(=O)Nc1cc(C(=O)Nc3cc(C(=O)Nc4cc(C(=O)NCCCN(C)C)n(C)n4)n(C)c3)n(C)c1)N=CC1CCCN1C2=O (configuration not stated) please.
Result block: f

Query block: # outcome recorded in this test, key = COc1ccc(Nc2nc(C#N)c(N)s2)cc1
Result block: f

Query block: Check the results log: what was the call for COc1cc2c(cc1OC)C1C(O)C(OC)C(Br)C3(Br)CCN(C2)C13 (configuration not stated) ?
Result block: f

Query block: // param item: COc1ccc(/C(Cl)=C(\C=O)c2ccccc2)cc1OC ; yields the recorded call
Result block: f

Query block: Entry CCCN1CN(C(C(=O)N[C@@H]2C(=O)N3C(C(=O)O)=C(C)CSC23)c2ccccc2)CSC1=S (some centres not stated) : call = ?
Result block: f

Query block: Could you please tell me the result logged for O=C1CC(Sc2nc3ccc(I)cc3c(=O)n2Cc2ccccc2)C(=O)NN1 (configuration not stated) in this assay?
Result block: f

Query block: Test call for this molecule, please: COc1ccc(/C=N/N=C(\N)NO)c(OC)c1OC
Result block: f

Query block: Per the assay record, what outcome was assigned to C=C[C@]1(C)CC(O)C2C(=C)C(=O)OC2[C@H]1C(=C)C=O (some centres not stated) ?
Result block: f

Query block: Per the assay record, what outcome was assigned to COc1ccc2nc3c([N+](=O)[O-])ccc4c3c(c2c1)N=CN4CCCN(C)C ?
Result block: t

Query block: Assay result, entry Cc1cc(C)c(O)c(Cc2cccc(Cc3cc(C)cc(C)c3O)c2O)c1 — outcome?
Result block: f

Query block: Test call for this molecule, please: Cn1c2c(c3ccccc31)CCN(CCCCN1CCN(c3ccccc3)CC1)C2=O
Result block: f

Query block: # outcome recorded in this test, key = Cc1cc2c3c(ccc4[nH]cc(c43)CN2c2ccc(NS(C)(=O)=O)cc2)n1
Result block: f

Query block: GET /call?item= NC(=O)c1cn(Cc2ccccc2)c(=O)n1Cc1ccccc1 returns the recorded outcome of this test.
Result block: f

Query block: Please let me know the test result on file for OC1CCC[C@@H]1Sc1ccccc1 (some centres not stated) .
Result block: f

Query block: Entry CN(C)CCCN1c2ccccc2CCc2cc([N+](=O)[O-])ccc21 : call = ?
Result block: f

Query block: Write down the call the test reported for this molecule. Item: COC(=O)c1cc(Cl)ccc1NC(=O)C1CCCCC1
Result block: f

Query block: How was CN(C)CCNC(=O)c1cccc2ccc(-c3ccc(Br)cc3)nc12 classified in this test?
Result block: t

Query block: # lookup: test call for Cn1c(=O)c2c(ncn2Cc2ccc(O)c([N+](=O)[O-])c2)n(C)c1=O
Result block: f

Query block: # lookup: test call for Cc1nc2ccccc2n1Cc1nnc2n1N=C(c1ccccc1)CS2
Result block: f

Query block: State the result this test recorded for CC(=O)OC(C)(C)/C=C/C(=O)[C@](C)(O)[C@H]1[C@H](O)C[C@@]2(C)[C@@H]3CC=C4[C@@H](C=C(O)C(=O)C4(C)C)[C@]3(C)C(=O)C[C@]12C .
Result block: t

Query block: State the result this test recorded for CC12C(=O)N(CCN)C(=O)C1C1c3ccccc3C2c2ccccc21 (configuration not stated) .
Result block: f

Query block: Give the logged outcome of this assay for the following molecule: O=C(O)NC(c1ccccc1)C(NC(=O)c1ccccc1)c1ccccc1 (configuration not stated)
Result block: f

Query block: Any idea what this test logged for Cn1c(=O)c2c(nc(C[N+]3([O-])CCOCC3)n2C)n(C)c1=O ?
Result block: f

Query block: What is the recorded call for this molecule in the test? O=C1Cc2ccccc2N1/N=C\c1ccc([N+](=O)[O-])cc1
Result block: f

Query block: Outcome logged for O=c1c(O)c(-c2ccc(O)c(O)c2)oc2cc(O)ccc12 in this assay:
Result block: f

Query block: Tell me the assay call for CCCCOC(=O)/C(CC(=O)C=C(C)C)=N\NS(=O)(=O)c1ccc(C)cc1 please.
Result block: f

Query block: Tell me the recorded outcome of this test for CC1CC(C)(O)CC(C(O)CC2CC(=O)NC(=O)C2)C1=O (configuration not stated) .
Result block: t

Query block: Tell me the recorded outcome of this test for CC1=C2C(=CC(C)(CO)C2O)C(=O)C(C)(O)C12CC2 (configuration not stated) .
Result block: t

Query block: # fetch the recorded call for NC(CCCCCP(=O)(O)O)C(=O)O (configuration not stated) here
Result block: f

Query block: Hi team, can someone confirm the assay call for COc1ccc(S(=O)(=O)NNS(C)(=O)=O)cc1OC ?
Result block: f

Query block: Any idea what this test logged for c1csc(-c2sc(-c3ccsc3)cc2Cc2ccsc2)c1 ?
Result block: f

Query block: For C/C(=N\NC(=S)N(C)CCN(C)C(=S)N/N=C(\C)c1ccccn1)c1ccccn1 , what call appears in the results of this test?
Result block: f

Query block: # outcome recorded in this test, key = COc1ccc(-c2oc3cc(OC(C)=O)cc(OC(C)=O)c3c(=O)c2OC)cc1
Result block: f

Query block: Per the records of this test, what outcome belongs to O=C1/C(=C/c2ccco2)NC(=S)N1CN1CCCCC1 ?
Result block: f

Query block: Each molecule tested received a call. Report the one for O=S(=O)(Cc1nc2ccccc2s1)c1nc2ccccc2s1 .
Result block: f

Query block: Please let me know the test result on file for CCC1(O)C(=O)OCc2c1cc1n(c2=O)Cc2cc3ccc(CO)cc3nc2-1 (configuration not stated) .
Result block: f

Query block: Any idea what this test logged for Cc1cc(C)n(C(=O)C(C)Sc2nnc(SC(C)C(=O)n3nc(C)cc3C)s2)n1 (configuration not stated) ?
Result block: f

Query block: Name the outcome recorded for COC(=O)C1C(C(=O)OC)N(Cc2ccccc2)C(=O)N1Cc1ccccc1 (configuration not stated) in the assay.
Result block: f

Query block: Test call for this molecule, please: Cc1nn(C(=O)c2ccncc2)c2c1C(c1ccccc1O)SC(=N)N2 (configuration not stated)
Result block: f

Query block: Check the results log: what was the call for CC1=C(NC(=O)C(=O)NNC(=O)c2ccncc2)C(=O)c2ccccc2C1=O ?
Result block: f

---

System: UACC-257
Assay: NCI tumour cell line growth inhibition, 48 h
Active and inactive are the calls of the source. No stated cut-off is given here; in the data, active = GI50 up to about 1.1 µM and inactive = higher.
Reply using exactly one outcome from active, inactive

Query block: Which outcome did this test record for the compound CC(=O)CC(=O)NC=O ?
Result block: inactive

Query block: Tell me the assay call for Cc1cc(C)c2c(c1)CC1(Cc3ccc(C)c(C)c3C1=O)C2=O (centres undefined) please.
Result block: inactive

Query block: Give the logged outcome of this assay for the following compound: O=C(O)c1ccc(Nc2nc3nn(Cc4ccccc4)cc3c(=O)s2)cc1
Result block: inactive

Query block: Given [N-]=[N+]=NC(c1ccccc1)(c1ccccc1)c1ccccc1 , state the outcome it received in this test.
Result block: inactive

Query block: Name the outcome recorded for COCC1OC(OC2C3=C(C(C)C)CCC3(C)/C=C3\C(CCC3(O)COC)C(C)C2O)C(O)C2OC3OC12OC3(C)C1CO1 (centres undefined) in the assay.
Result block: inactive

Query block: Status in this test for CCOC(=O)c1cc2c3ccn(Cc4ccccc4)c3c3c(C)noc3c2[nH]1 ?
Result block: inactive

Query block: Record lookup: outcome of this test for Oc1cc(Cl)cc2cccnc12 ?
Result block: inactive

Query block: Recorded call for COc1ccc(/N=c2/oc3ccccc3cc2C(N)=O)cc1 ?
Result block: inactive

Query block: For O=C(CCC(=O)Nc1cccc(Cl)c1)CC(=O)c1ccc(F)cc1 , which call appears in the assay record?
Result block: inactive

Query block: What call does the record list for N#Cc1c(-c2ccc(Cl)cc2)cc(-c2nc3ccccc3[nH]2)nc1N ?
Result block: inactive

Query block: Per the assay record, what outcome was assigned to O=C(CC/C(CC(=O)c1ccc(Cl)cc1)=N\O)Nc1cccc(Cl)c1 ?
Result block: inactive

Query block: Outcome? O=c1c2ccccc2nc(-c2cc3c(cc2Cl)Sc2nccn2S3(=O)=O)n1-c1ccccc1
Result block: inactive

Query block: # outcome recorded in this test, key = CC(=O)N1CC2Nc3ccccc3C2CC1CO (centres undefined)
Result block: inactive

Query block: Dear colleague, could you share the recorded outcome for CCC1(c2ccc(OC)c(OC)c2)CCN2C(=O)C(O)CC21 (centres undefined) when you have a moment?
Result block: inactive

Query block: Called result for Cn1c(=S)c2nc(SCCCc3ccccc3)[nH]c2n(C)c1=O
Result block: inactive

Query block: Hey, what did the test say about O=[N+]([O-])c1cnc(N(CCO)CCO)s1 ?
Result block: inactive

Query block: Tell me the recorded outcome of this test for CCCCOC(=O)/C(CC(=O)C=C(C)C)=N\NS(=O)(=O)c1ccc(C)cc1 .
Result block: inactive

Query block: Answer briefly: the call reported for CCSC1=N/C(=C/c2ccccc2O)C(=O)N1 in this assay.
Result block: inactive

Query block: Can you look up the reported call for CCOC(=O)C(C)(C)Oc1ccc2c(-c3ccc(Cl)cc3)cc(=O)oc2c1 for me?
Result block: inactive

Query block: Give the logged outcome of this assay for the following compound: COc1ccc2nc3n(c2c1)CCc1cc(OC)c(OC)cc1-3
Result block: inactive

Query block: Please let me know the test result on file for Cc1cc(NN)nc2[nH]nc(N)c12 .
Result block: inactive

Query block: Hello, I am checking results. What call was entered for C/C(=N\NC(=S)N(C)CCN(C)C(=S)N/N=C(\C)c1ccccn1)c1ccccn1 ?
Result block: active

Query block: For Cc1ccc2c(O)cc(-c3ccc(Cl)cc3)nc2n1 , which call appears in the assay record?
Result block: inactive

Query block: Test call, this compound: COC(=O)[C@H]1C[C@H]1NC(=O)C(CC(=O)OCc1ccccc1)NC(=O)OCc1ccccc1 (some centres undefined)
Result block: inactive

Query block: Hi, do you know how CCN(CC)C(=O)CCN1CC1 came out in this test?
Result block: inactive

Query block: Assay outcome for O=C(Nc1ccc(Cl)cc1)c1cc(S(=O)(=O)Nc2n[nH]c(=O)[nH]2)c(SSc2cc(Cl)c(C(=O)Nc3ccc(Cl)cc3)cc2S(=O)(=O)Nc2n[nH]c(=O)[nH]2)cc1Cl : what was it?
Result block: inactive

Query block: Dear all, I need the recorded test outcome for c1csc(-c2sc(-c3ccsc3)cc2Cc2ccsc2)c1 , thank you.
Result block: inactive

Query block: Please let me know the test result on file for Cc1nc2ccccc2c(=O)n1/N=C/c1ccc(N(C)C)cc1 .
Result block: inactive

Query block: Returns: the outcome recorded for C[C@@H]1C[C@H](O)[C@]2(O)O[C@@H]3C[C@@]4(C=O)[C@@H](CC[C@@H]5[C@@H]4CC[C@]4(C)[C@@H](C6=CC(=O)OC6)CC[C@]54O)C[C@H]3O[C@@H]2O1 [CALOTROPIN] in this assay.
Result block: active

Query block: For this compound, state the assay outcome: CC(=O)c1cccc(C)c1C(=O)O
Result block: inactive

Query block: I'd appreciate the recorded outcome for COc1cc2c(NCCCCCCO[N+](=O)[O-])ncnc2c(OC)c1OC from this test.
Result block: inactive

Query block: Which outcome was assigned to C=C1C(=O)O[C@@H]2OC3(C)CCC4C(C)CCC1C42OO3 (some centres undefined) in this test?
Result block: inactive

Query block: // outcome(item) with item = CC(=O)C1C(=O)C(=O)N(c2ccc([N+](=O)[O-])cc2)C1=O (centres undefined)
Result block: inactive

Query block: What classification did CC1(C)OCC2OC3([C@@H]4OC(C)(C)O[C@H]4CO)OC(C)(C)OC3C2O1 (some centres undefined) end up with in this test?
Result block: inactive

Query block: Write down the call the test reported for this compound. Item: O=P(O)(NCCCl)NCCCl [PALIFOSFAMIDE]
Result block: inactive

Query block: Any idea what this test logged for CC(=O)NC(Cc1ccc(OP(=O)(OCc2ccc([N+](=O)[O-])o2)N(C)CCCCCl)cc1)C(=O)NC(C)c1ccc(OCC2CCCCC2)c(C(N)=O)c1 (centres undefined) ?
Result block: inactive

Query block: Could you please tell me the result logged for C/C(=N\NC(=O)c1ccncc1)c1ccccc1Cl in this assay?
Result block: inactive

Query block: // outcome(item) with item = O=c1ccn(C2OC(CO)C(O)C2O)c(=O)[nH]1 (centres undefined)
Result block: inactive

Query block: How was CCOc1ccccc1-c1nc2c(s1)C(=O)c1ccccc1C2=O classified in this test?
Result block: inactive

Query block: For NC12Oc3cc(O)cc(O)c3C1(c1ccc(Cl)cc1)c1c(O)cc(O)cc1O2 (centres undefined) , which call appears in the assay record?
Result block: inactive

Query block: In this assay, the call recorded for CC(=O)OC1(C#N)CC2OC1C1C2N=NN1C(=O)OC(C)(C)C (centres undefined) was what?
Result block: inactive

Query block: Fill in: this test's call for COc1cc(/C=C2/C(=O)N(C(=O)c3ccc(Cl)cc3)N=C2C)cc(OC)c1OC is ___
Result block: inactive

Query block: Tell me the recorded outcome of this test for CCOC(=O)C1=NNC(C(=O)c2ccccc2)C1c1ccccc1 (centres undefined) .
Result block: inactive

Query block: For this compound, state the assay outcome: CC1SC2=NC3=C(c4ccccc4C3=O)C(c3ccc(F)cc3)N2C1=O (centres undefined)
Result block: inactive
